All figures here come from PubChem BioAssay (NCI).

# System: SK-MEL-2 melanoma
# METHOD_NOTES: NCI tumour cell line growth inhibition, 48 h; in the data active means GI50 below about 0.43 µM; inactive means the rest
Classes used: active, inactive

COMPOUND	CLASS
Nc1nc2c(nnn2C2OC(CO)C(O)C2O)c(=O)[nH]1 (centres undefined)	inactive
CN(C)CCC=C1c2ccccc2C(C)(C)c2ccccc21	inactive
NC1CCC(Nc2nc(NCc3cc(Cl)ccc3O)c3ncn(C4CCCC4)c3n2)CC1 (centres undefined)	active
CCCCCc1cc[n+](CC(=O)c2ccc([N+](=O)[O-])cc2)cc1	inactive
COC(=O)c1ccc2c(c1)C(=O)c1c-2n(C)c(=O)c2cc(OC)c(OC)cc12	inactive
CC1=C(C(=O)Nc2ccc3[nH]ncc3c2)C(c2ccc(Cl)c(Cl)c2)CC(=O)N1 (centres undefined)	inactive
CCCC[n+]1c(/C=C\c2c(OC)cc(OC)cc2OC)ccc2ccccc21	inactive
CC(=O)[CH-]C(=O)c1ccccc1.CC(=O)[CH-]C(=O)c1ccccc1.CC1(C)OCC(C2OC3OC(C)(C)OC3C2[O-])O1.CC1(C)OCC(C2OC3OC(C)(C)OC3C2[O-])O1.[Ti+4] (centres undefined)	inactive
O=C(O)C1C2C=CC(C2)C1C(=O)O (centres undefined)	inactive
O=C1C(=O)c2ccccc2C(O)=C1CCCc1ccc(C2CCCC2)cc1	inactive
COc1ccc(-c2nc(Nc3ccc(-c4nc5ccccc5[nH]4)cc3)nc(N3CCOCC3)n2)cc1	inactive
NCCCn1c2c(c3ccc([N+](=O)[O-])cc3c1=O)C(=O)c1cc(-c3ccccc3)ccc1-2	inactive
O=C(N=Nc1c(O)[nH]c2ccccc12)c1oc2ccccc2c1CN1CCN(c2ccccc2)CC1	inactive
O=C1CCCCC=C1C[N+](=O)[O-]	inactive
C=C1CCC2C3(C)COC(c4c(OC)cccc4OC)OC3CCC2(C)C1C/C=C1/C(=O)OCC1O (centres undefined)	inactive
Cc1ccc(/C=C/C(=N/N=C(N)N)c2ccccc2)cc1	inactive
C[N+](C)(CCCCCC[N+](C)(C)CCCN1C(=O)c2cc3ccccc3cc2C1=O)CCCN1C(=O)c2cc3ccccc3cc2C1=O	inactive
CN1CC[C@]2(c3cccc(O)c3)CC(=O)/C(=C/c3ccccc3)[C@H]1C2	inactive
CCCCCCCCCCC/C=C\C[C@H](O)C/C=C1/C(=O)C=C[C@@H]1C/C=C\CCCC(=O)OC	inactive

###

Form field: TGI (one value per entry).
# System: SK-MEL-2 melanoma
# METHOD_NOTES: NCI tumour cell line growth inhibition, 48 h
VALUE_TYPE: TGI (µM)

> print(dat)
                                    molecule  value.type  censor.symbol  reported
 1  Cc1c(-c2ccccc2)c(C#N)c2nnn(C3CCCCC3)c(=O)n12         TGI              >       100
 2  CCOC(=O)NC(C(=O)OCC)(N1CCN(c2cc3c(cc2F)c(=O)c(C(=O)O)cn3CC)CC1)C(F)(F)F (configuration not stated)         TGI              >       100
 3  CC(Oc1ccc(OCC2CCCCC2)cc1)C(=O)NCCO (configuration not stated)         TGI              >       100
 4  Cc1[nH]c(C(=O)Nc2ccccc2OC2CCNCC2)c(Cl)c1Cl         TGI              =      1.91
 5   O=c1oc2ccccc2c(O)c1/C=N/C(=S)NCc1ccccc1         TGI              >       100
 6  CC(=O)c1ccc(Nc2nc(Nc3ccc(F)cc3)nc(Nc3ccc(F)cc3)n2)cc1         TGI              =      40.3
 7  CC(=O)OC12c3ccccc3-c3ccccc3C1C(C(=O)O)C2(Cl)C(=O)O (configuration not stated)         TGI              >        10
 8  NC(=O)C(=CNC(=S)Nc1ccc(Cl)c(Cl)c1)C(N)=O         TGI              >       100
 9          S=C(N/N=C/c1ccccn1)Nc1ccc(Cl)cc1         TGI              >       100
10  Fc1ccc(-c2nn3c(-c4cc(C(F)(F)F)cc(C(F)(F)F)c4)nnc3s2)cc1         TGI              =      4.75
11  COc1cc(OC)c2c(=O)c(OC)c(-c3ccc4c(c3)OCO4)oc2c1OC         TGI              >       100
12  Cc1cc2oc(-c3ccccc3)c(C)c(=O)c2c2c1OC(C)(C)S2         TGI              >       100
13      Clc1ccc(CNc2nc(Cl)c3[nH]cnc3n2)cc1Cl         TGI              =      77.9
14  Cc1cc(Cl)ccc1NC(=O)CCCC(=O)C1CCC/C1=N\NC(=O)CC#N (configuration not stated)         TGI              >       100
15  Cn1cc(S(=O)(=O)NC(=O)Nc2ccc(Cl)cc2)c2ccccc21         TGI              >       100
16  O=c1c2cccc(F)c2sc2c(N3CCNCC3)nc3ccccc3c12         TGI              =      3.46
17  Cc1nc2c(cc1C(=O)N/N=C/c1ccc([N+](=O)[O-])cc1)c(=O)n(C)c(=O)n2C         TGI              >       100
18  CN1CC[C@]2(c3cccc(O)c3)CC(=O)/C(=C/c3ccccc3)[C@H]1C2         TGI              =      12.6
19                  Clc1cc2c(nn1)Nc1ccccc1S2         TGI              >       100
20  COc1ccc(/C=C/C(=N/NC(=O)N/N=C(/C=C/c2ccc(OC)cc2)C(C)(C)CN2CCCCC2)C(C)(C)CN2CCCCC2)cc1         TGI              =       3.1
21  C=C1C(=O)O[C@@H]2[C@H]1CCC(C)=C1C=CC(=O)[C@]12C         TGI              =      79.4
22                 O=C1CCCCC=C1C[N+](=O)[O-]         TGI              =      44.4

###

# System: ACHN renal
# METHOD_NOTES: NCI tumour cell line growth inhibition, 48 h
VALUE_TYPE: TGI (µM)

> print(dat)
                                   compound  unit.name  censor.symbol  reported
1  O=C1C(Cl)C2(CC(/C=C/c3ccccc3O)=NN2c2cccc(S(=O)(=O)O)c2)N1c1nc2ccccc2s1 (stereo not given)         µM              =        53
2          CC(=O)Nc1ccc(-c2nc3ccccc3s2)cc1C         µM              >       100
3  CC(C)COC(=O)OC(=O)c1ccc(N(C)Cc2cnc3nc(N)nc(N)c3n2)cc1         µM              >      79.4
4     Cc1ccc(Nc2[nH]c(=O)[nH]c(=O)c2C)cc1Cl         µM              >       100
5  C1COCCOCCOCCOCCOCCO1.[Cl][Sn]([Cl])([c]1ccccc1)[c]1ccccc1         µM              =      22.8

###

# Test system: EKVX NSCLC
# METHOD_NOTES: NCI tumour cell line growth inhibition, 48 h
VALUE_TYPE: TGI

COMPOUND	VALUE_TYPE	REPORTED
Clc1nc(Cl)c2c3c(sc2n1)CCCC3	TGI	> 100 µM
Nc1nc2c(nnn2C2OC(CO)C(O)C2O)c(=O)[nH]1 (centres undefined)	TGI	> 100 µM
NCCCCCCCCCCCn1c2c(c3ccccc3c1=O)C(=O)c1ccccc1-2	TGI	45.7 µM
CNc1cc2nc3cc(NC)c(C)cc3cc2cc1C	TGI	8.48 µM
CC(=O)OCC1=C(C(=O)O)C(c2ccc3c(c2)OCO3)c2cc3c(cc2O1)OCO3 (centres undefined)	TGI	> 100 µM
COC(=O)NN1C(C)=C(C(=O)OC)C2(C#N)C(C(=O)OC)=C(C)N(NC(=O)OC)C12N (centres undefined)	TGI	> 100 µM
Cc1ccc(S(=O)(=O)N2c3ccccc3[C@H]3CCC=C[C@H]32)cc1	TGI	> 92.6 µM
CCCC(N)C(=O)c1ccccc1 (centres undefined)	TGI	> 100 µM
O=C(CC1(O)C(=O)Nc2ccccc21)c1ccc(F)cc1 (centres undefined)	TGI	> 100 µM
COc1cc(/C=C/c2nc(N)nnc2C)cc(OC)c1OC	TGI	> 72.9 µM
O=C1C(Nc2ccc(Br)cc2)=C(I)C(=O)c2ncccc21	TGI	9.52 µM
CC(C)(CCN=C(N)Nc1ccccn1)c1ccc(C(F)(F)F)cc1	TGI	30.5 µM
C[C@]12CC[C@H]3[C@@H](CCC4=CC(=O)CC[C@@]43C)[C@@H]1CC[C@@H]2C(=O)COS(=O)(=O)c1ccc(Br)cc1	TGI	21.3 µM
COC(=O)N/N=C(\C(=O)Nc1cccc([N+](=O)[O-])c1)c1nc2ccc([N+](=O)[O-])cc2[nH]c1=O	TGI	> 100 µM
Cc1cc(C)c2c(c1)C1=NCCN1C2(O)c1ccc(Cl)cc1 (centres undefined)	TGI	33.3 µM
Cc1c(-c2ccccc2)c(C#N)c2nnn(C3CCCCC3)c(=O)n12	TGI	> 100 µM
Fc1ccc(-c2nn3c(-c4cc(C(F)(F)F)cc(C(F)(F)F)c4)nnc3s2)cc1	TGI	> 50 µM
C=C1CCC2C3(C)COC(c4c(OC)cccc4OC)OC3CCC2(C)C1C/C=C1/C(=O)OCC1O (centres undefined)	TGI	27.3 µM
NNC1=N/C(=C\c2ccco2)C(=O)N1	TGI	> 100 µM
COC(=O)C(CC(C)=O)CS(=O)(=O)CC(=O)C(=O)Nc1cccc([N+](=O)[O-])c1 (centres undefined)	TGI	> 100 µM
CSc1nc2c(nc(N)n2C2OC(COC(C)=O)C(OC(C)=O)C(OC(C)=O)C2OC(C)=O)c(=O)n1C (centres undefined)	TGI	> 100 µM
COc1ccc(P2(=S)SP(=S)(c3ccc(Cl)cc3)S2)cc1 (centres undefined)	TGI	> 100 µM
COC(=O)C(C(=O)C(=O)Nc1ccccc1C#N)c1nc2ccc([N+](=O)[O-])cc2[nH]c1=O (centres undefined)	TGI	> 100 µM
Cn1cc(S(=O)(=O)NC(=O)Nc2ccc(Cl)cc2)c2ccccc21	TGI	> 100 µM
CCOC(=O)C(=[N+]=[N-])C(=O)CN1C(=O)C2CC(C)=C(C)CC2C1O (centres undefined)	TGI	> 100 µM
COc1ccc2c(c1)[n+]([O-])c(-c1ccc(Br)cc1)c(N)[n+]2[O-]	TGI	> 100 µM
CCOC(=O)C1C(c2ccc(O)c(OC)c2)c2c([nH][nH]c2=O)CC1(C)O (centres undefined)	TGI	> 100 µM
C/C(=N\NS(=O)(=O)c1ccc(C)cc1)c1cc2ccccc2n1C	TGI	> 100 µM
CCCCCCC/C=C/[C@H]1O[C@]2(O)C(=O)C=C3C[C@@H](O[C@@H]4O[C@H](CO)[C@@H](O)C(O)[C@@H]4O)C[C@@H]3[C@H]2C=C1C (some centres undefined)	TGI	11 µM
Clc1ccc(CNc2nc(Cl)c3[nH]cnc3n2)cc1Cl	TGI	> 100 µM
CCOC(=O)NC(C(=O)OCC)(N1CCN(c2cc3c(cc2F)c(=O)c(C(=O)O)cn3CC)CC1)C(F)(F)F (centres undefined)	TGI	56.9 µM
CC1(C)CCCC(C)(C2CCC3(C)C2C(O)CC2C4(C)CCC(O)C(C)(C)C4C(O)CC23C)O1 (centres undefined)	TGI	32.5 µM
N#CCOc1ccc(/C=C/C(=O)c2ccc(Cl)cc2)cc1	TGI	> 100 µM
NC(=O)c1ncn(CCN2CCN(C(=O)NCCCCCCNC(=O)N3CCN(CCn4cnc(C(N)=O)c4N)CC3)CC2)c1N	TGI	> 100 µM
